The measured values listed here are drawn from patent US7026443.

Could you please report measured relative binding ratio (IC50 of standard peptide / IC50 of test peptide) for the items listed next?
# tested on: HLA-A*0101 (human)
# protocol text: competition with 125I-labelled standard peptide for purified HLA-A*0101, gel filtration
Numbers only.

Solved entries (count: 4):
> print(dat)
                                     binder  test.result
1  GTTLEQQY (modifications not checked) [GTTLEQQY (HPV16 E6, position 92, 8 amino acids)]       0.0006
2  DTPTLHEY (modifications not checked) [DTPTLHEY (HPV16 E7, position 4, 8 amino acids)]       0.0002
3  VCDKCLKFY (modifications not checked) [… (HPV16 E6, position 69, 9 amino acids)]       0.0017
4  QAEPDRAHY (modifications not checked) [… (HPV16 E7, position 44, 9 amino acids)]        0.021

Now let's try a different one.
I would be grateful if you could share the reported relative binding ratio (IC50 of standard peptide / IC50 of test peptide) for QPETTDLY (modifications not checked) [QPETTDLY (HPV16 E7, position 16, 8 amino acids)] .
0.001
